Overview of recorded mean fluorescence relative to chimeric antibody for various binders
- system: T1, pig CD47 (pig, UniProt Q9GKE8 19-303)
- T1 construct: whole, on cells; also called CD47 on porcine RBCs
- T1 sequence (looked up): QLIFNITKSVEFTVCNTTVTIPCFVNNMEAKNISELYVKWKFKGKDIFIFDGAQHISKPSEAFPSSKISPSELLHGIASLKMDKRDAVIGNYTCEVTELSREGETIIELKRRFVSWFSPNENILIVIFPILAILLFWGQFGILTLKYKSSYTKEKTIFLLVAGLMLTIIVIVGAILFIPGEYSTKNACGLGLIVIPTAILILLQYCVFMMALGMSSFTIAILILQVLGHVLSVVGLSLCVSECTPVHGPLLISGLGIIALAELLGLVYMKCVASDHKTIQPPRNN
- assay.notes: flow cytometry on RBCs, CHO supernatant 10 ng/ml
- Description: RBCs are incubated for 60 minutes on ice with tissue culture supernatants containing the secreted humanized antibodies at a concentration of 10 ng/ml in a solution of phosphate buffered saline, pH 7.2, 2.5 mM EDTA (PBS+E), or with various concentrations of purified antibodies. […] Antibody binding is quantitated by comparison of mean fluorescence values relative to that of chimeric antibody >VxP037-01LC (SEQ ID NO:7))/>VxPO37-01HC (SEQ ID NO:57). […]
Report only the number, with the unit ratio understood.

- binder: "Clone 7 (pVxK7b-037-hum07-LC / pVxK7b-037-hum07-HC) (antibody, human IgG1, kappa, V domains shown) VH: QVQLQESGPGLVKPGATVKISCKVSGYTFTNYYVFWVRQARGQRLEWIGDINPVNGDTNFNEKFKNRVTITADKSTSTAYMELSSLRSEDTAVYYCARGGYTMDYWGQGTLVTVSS VL: DIVMTQTPLSLPVTPGEPASISCRSSQSLVHSNGNTYLHWYLQKPGQSPQLLIYKVSYRFSGVPDRFSGSGSGTDFTLKISRVEAEDVGVYYCSQNTHVPRTFGQGTKVEIKR"
  result.value: 0.9

Incoming: Give a short answer stating reported mean fluorescence relative to chimeric antibody for Clone 6 (pVxK7b-037-hum06-LC / pVxK7b-037-hum06-HC) (antibody, human IgG1, kappa, V domains shown) VH: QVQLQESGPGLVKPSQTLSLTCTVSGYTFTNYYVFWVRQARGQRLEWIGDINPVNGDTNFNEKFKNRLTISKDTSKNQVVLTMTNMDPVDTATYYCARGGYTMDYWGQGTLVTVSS VL: DIQMTQSPSSLSASVGDRVTITCRSSQSLVHSNGNTYLHWYLQKPGQSPQLLIYKVSYRFSGIPARFSGSGSGTEFTLTISSLQSEDFAVYYCSQNTHVPRTFGQGTKVEIKR .
Outgoing: 1.1

Incoming: Give a short answer stating reported mean fluorescence relative to chimeric antibody for Clone 2 (pVxK7b-037-hum02-LC / pVxK7b-037-hum02-HC) (antibody, human IgG1, kappa, V domains shown) VH: QVQLQESGPGLVKPSQTLSLTCTVSGYTFTNYYVFWVRQARGQRLEWIGDINPVNGDTNFNEKFKNRVTISADKSISTAYLQWSSLKASDTAMYYCARGGYTMDYWGQGTLVTVSS VL: DVVMTQSPLSLPVTLGQPASISCRSSQSLVHSNGNTYLHWYQQKPGQAPRLLIYKVSYRFSGVPSRFSGSGSGTEFTLTISSLQPDDFATYYCSQNTHVPRTFGQGTKVEIKR .
Outgoing: 1.2
